// data source = paper PMC4374931

# test-protocol: in vitro
# Assay type: cell-based
# assay-conditions: human
quantity-name: viability at 24 h, 10 nM (%)
// return numeric value only (unit: %, not printed)

Would you please look over these solved cases?
• C[C@@H]1C[C@H]2[C@@H]3CCC4=CC(=O)C=C[C@]4(C)[C@@]3(F)[C@@H](O)C[C@]2(C)[C@@]1(O)C(=O)CO [Dexamethasone, dexamethasone] = 114
• C[C@]12C[C@H](O)[C@H]3[C@@H](CCC4=CC(=O)CC[C@@]43C)[C@@H]1CC[C@@H]2C(=O)CO [Corticosterone, corticosterone] = 107
• C[C@H]1C[C@H]2[C@@H]3CCC4=CC(=O)C=C[C@]4(C)[C@@]3(F)[C@@H](O)C[C@]2(C)[C@@]1(O)C(=O)CO [Betamethasone, betamethasone] = 110
• CC#C[C@]1(O)CC[C@H]2[C@@H]3CCC4=CC(=O)CCC4=C3[C@@H](c3ccc(N(C)C)cc3)C[C@@]21C [Mifepristone, mifepristone] = 102
• CC/C(=C(/CC)c1ccc(O)cc1)c1ccc(O)cc1 [Diethylstilbestrol, diethylstilbestrol] = 102
• O=c1c(-c2ccc(O)cc2)coc2cc(O)cc(O)c12 [Genistein, genistein] = 96.7

Now turn to the next compound.
viability at 24 h, 10 nM measured on C[C@H]1C[C@@H]2[C@H]([C@@H](O)C[C@@]3(C)[C@H]2CC[C@]3(O)C(=O)CO)[C@@]2(C)C=CC(=O)C=C12 [Methyl-prednisolone, methylprednisolone] = 111
